# measurementNotes: Test for solubility according to pH
# Format: physicochemical
# experimentalConditions: pH 6.8, aqueous buffer, thermodynamic from solid; second solution pH about 6.8, 2 mg/mL, 37° C. 2 hours; read-out: Solubility (μg/mL) pH 6.8
measuredQuantity: solubility at 2 h (µg/mL)
Report the value in µg/mL with no unit label.

* Br.O=C(c1cc(Br)c(O)c(Br)c1)N1CCOc2ccncc21 | 886

**Q:** What does the data say about its solubility at 2 h? Entry: "O=C(c1cc(Br)c([O-])c(Br)c1)N1CCOc2ccncc21.[K+]"
**A:** 565

**Q:** And what about the compound "Cl.O=C(c1cc(Br)c(O)c(Br)c1)N1CCOc2ccncc21" ?
**A:** 810

**Q:** Repeat for the following compound: "Br.O=C(c1cc(Cl)c(O)c(Cl)c1)N1CCOc2ccncc21"
**A:** 847

Source listed as patent US8394792B2.
